Biological target: rat NR1/NR2B receptor (Rattus norvegicus (Rat), UniProt P35439+Q00960)
Sequence (Q00960 27-1482, other chains not shown): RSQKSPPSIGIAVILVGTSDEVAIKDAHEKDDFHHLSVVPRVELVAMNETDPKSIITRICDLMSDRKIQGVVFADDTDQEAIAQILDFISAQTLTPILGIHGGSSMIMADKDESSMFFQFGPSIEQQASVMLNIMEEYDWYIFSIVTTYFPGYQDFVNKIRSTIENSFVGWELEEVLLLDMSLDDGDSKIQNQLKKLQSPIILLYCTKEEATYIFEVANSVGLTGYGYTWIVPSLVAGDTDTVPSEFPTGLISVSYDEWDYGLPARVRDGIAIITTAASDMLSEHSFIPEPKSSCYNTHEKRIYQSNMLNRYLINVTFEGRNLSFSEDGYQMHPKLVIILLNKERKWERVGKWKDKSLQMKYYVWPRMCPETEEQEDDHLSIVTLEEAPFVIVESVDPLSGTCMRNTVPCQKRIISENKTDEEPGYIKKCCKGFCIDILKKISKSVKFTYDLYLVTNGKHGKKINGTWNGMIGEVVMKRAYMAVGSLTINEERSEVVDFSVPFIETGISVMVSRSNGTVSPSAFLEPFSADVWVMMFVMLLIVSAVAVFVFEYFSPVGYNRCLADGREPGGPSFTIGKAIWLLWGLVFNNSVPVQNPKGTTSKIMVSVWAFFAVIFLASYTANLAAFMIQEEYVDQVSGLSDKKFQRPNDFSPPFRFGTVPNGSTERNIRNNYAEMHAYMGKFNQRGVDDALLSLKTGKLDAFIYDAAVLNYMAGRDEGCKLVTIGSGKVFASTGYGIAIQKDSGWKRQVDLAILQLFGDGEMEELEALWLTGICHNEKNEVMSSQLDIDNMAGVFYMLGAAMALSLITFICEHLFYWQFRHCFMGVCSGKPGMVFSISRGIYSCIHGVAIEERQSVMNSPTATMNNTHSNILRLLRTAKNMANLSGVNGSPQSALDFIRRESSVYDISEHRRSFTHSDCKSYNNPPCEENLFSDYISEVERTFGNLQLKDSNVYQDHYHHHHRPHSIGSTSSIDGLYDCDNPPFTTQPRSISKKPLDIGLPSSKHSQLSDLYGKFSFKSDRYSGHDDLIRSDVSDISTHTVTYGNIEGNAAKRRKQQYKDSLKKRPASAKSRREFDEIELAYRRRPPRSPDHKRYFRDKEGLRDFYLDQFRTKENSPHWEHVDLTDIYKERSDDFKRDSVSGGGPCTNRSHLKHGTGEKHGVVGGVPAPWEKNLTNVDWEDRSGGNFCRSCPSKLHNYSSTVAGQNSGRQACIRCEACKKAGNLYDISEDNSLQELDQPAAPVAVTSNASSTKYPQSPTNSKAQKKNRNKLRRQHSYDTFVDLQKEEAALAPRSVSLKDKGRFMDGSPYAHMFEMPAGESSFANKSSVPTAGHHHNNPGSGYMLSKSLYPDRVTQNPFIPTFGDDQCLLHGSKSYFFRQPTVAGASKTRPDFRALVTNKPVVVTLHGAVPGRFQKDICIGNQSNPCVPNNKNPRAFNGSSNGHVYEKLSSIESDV
Assay: NR2B binding assay: inhibition of specific [3H]-Ifenprodil binding to the rat NR1/NR2B receptor
Settings: [3H]-Ifenprodil binding, rat brain membranes
quantity: IC50

[
  {
    "molecule": "CCn1ccc(Cn2cc(-c3ccc(F)c(C(F)F)c3)cn2)n1 [Example 38]",
    "quantity": "IC50",
    "measuredResult": "443 nM"
  },
  {
    "molecule": "Cn1ccc(Cn2cc(-c3ccc(F)c(C(F)F)c3)cn2)n1 [Example 31, Succinate]",
    "quantity": "IC50",
    "measuredResult": "264 nM"
  },
  {
    "molecule": "Cn1ccc(Cn2cc(-c3ccc(F)c(Cl)c3)cn2)n1 [Example 61, Succinate]",
    "quantity": "IC50",
    "measuredResult": "1380 nM"
  },
  {
    "molecule": "Cc1n[nH]c(C)c1Cn1cc(-c2ccc(F)c(C(F)F)c2)cn1 [Example 89]",
    "quantity": "IC50",
    "measuredResult": "736 nM"
  },
  {
    "molecule": "Cn1nccc1Cn1cc(-c2ccc(Cl)c(OC(F)F)c2)cn1 [Example 5]",
    "quantity": "IC50",
    "measuredResult": "148 nM"
  },
  {
    "molecule": "Cc1cc(Cn2cc(-c3ccc(F)c(C(F)F)c3)cn2)[nH]n1 [Example 39]",
    "quantity": "IC50",
    "measuredResult": "102 nM"
  },
  {
    "molecule": "Cn1cc(Cn2cc(-c3ccc(F)c(C(C)(F)F)c3)cn2)cn1 [Example 45, Succinate]",
    "quantity": "IC50",
    "measuredResult": "261 nM"
  },
  {
    "molecule": "Cc1cc(Cn2cc(-c3ccc(Cl)c(F)c3)cn2)n(C)n1 [Example 60]",
    "quantity": "IC50",
    "measuredResult": "2170 nM"
  },
  {
    "molecule": "Cc1n[nH]c(C)c1Cn1cc(-c2ccc(F)c(C(C)(F)F)c2)cn1 [Example 90]",
    "quantity": "IC50",
    "measuredResult": "422 nM"
  },
  {
    "molecule": "CC(F)(F)c1cc(-c2cnn(Cc3cc[nH]n3)c2)ccc1F [Example 44, Succinate]",
    "quantity": "IC50",
    "measuredResult": "17.1 nM"
  }
]

(Q) Quick check: IC50 of Cc1[nH]ncc1Cn1cc(-c2ccc(F)c(C(F)F)c2)cn1 [Example 42] ?
(A) 202 nM

(Q) How about Cc1cc(Cn2cc(-c3ccc(Cl)c(C(F)F)c3)cn2)n(C)n1 [Example 25] ?
(A) 980 nM

(Q) What about Cc1n[nH]c(C)c1CCn1cc(-c2ccc(F)c(C(F)F)c2)cn1 [Example 36] ?
(A) 424 nM

(Q) # repeat for CCc1[nH]ncc1Cn1cc(-c2ccc(F)c(C(F)F)c2)cn1 [Example 43]
(A) 134 nM

(Q) Can you check CCn1cc(CCn2cc(-c3ccc(Cl)c(OC(F)F)c3)cn2)cn1 [Example 10] next?
(A) 250 nM

(Q) Also need FS(F)(F)(F)(F)c1cccc(-c2cnn(Cc3cc[nH]n3)c2)c1 [Example 72] , thanks.
(A) 95.1 nM

(Q) Ok, now CS(=O)(=O)c1cccc(-c2cnn(Cc3cc[nH]n3)c2)c1 [Example 70, Succinate]
(A) 2690 nM

(Q) Try the molecule Cn1cc(Cn2cc(-c3ccc(F)c(OC(F)F)c3)cn2)cn1 [Example 19]
(A) 202 nM

(Q) Request: CCc1c[nH]nc1Cn1cc(-c2ccc(F)c(OC(F)F)c2)cn1 [Example 91, Succinate]
(A) 43.8 nM
